# assayedTarget: T1, human fibroblast activation protein (FAP) (human, UniProt Q12884 26-760)
# T1 construct: also called human FAP; hFAP
# T1 sequence: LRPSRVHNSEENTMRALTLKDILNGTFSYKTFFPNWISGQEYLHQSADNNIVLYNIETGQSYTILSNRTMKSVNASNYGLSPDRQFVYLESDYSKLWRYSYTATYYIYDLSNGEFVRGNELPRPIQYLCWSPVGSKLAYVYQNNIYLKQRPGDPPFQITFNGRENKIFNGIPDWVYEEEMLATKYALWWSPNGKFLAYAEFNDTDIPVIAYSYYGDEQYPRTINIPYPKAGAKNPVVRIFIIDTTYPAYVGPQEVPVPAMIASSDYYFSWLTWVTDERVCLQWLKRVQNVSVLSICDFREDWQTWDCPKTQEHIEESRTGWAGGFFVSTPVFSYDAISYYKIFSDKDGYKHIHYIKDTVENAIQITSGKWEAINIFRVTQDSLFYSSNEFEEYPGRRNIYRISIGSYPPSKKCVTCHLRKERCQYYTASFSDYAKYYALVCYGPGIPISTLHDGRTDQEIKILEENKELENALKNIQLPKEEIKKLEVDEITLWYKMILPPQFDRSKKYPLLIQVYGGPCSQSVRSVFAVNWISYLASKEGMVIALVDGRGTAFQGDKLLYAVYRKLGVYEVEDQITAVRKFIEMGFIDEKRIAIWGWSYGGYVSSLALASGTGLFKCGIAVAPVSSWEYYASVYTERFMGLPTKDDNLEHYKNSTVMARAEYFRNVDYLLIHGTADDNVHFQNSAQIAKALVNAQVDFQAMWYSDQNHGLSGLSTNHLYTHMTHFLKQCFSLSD
# runDescription: BLI (Octet), kinetics to human FAP, post TCO conjugation
readoutKind: Kd (nM)
Please state the figure in nM; there is no need to write the unit.

TCO-VHH1 (VHH, trans-cyclooctene (TCO) conjugated via TCO-NHS; site(s) and number not stated, also called TCO conjugated VHH1; VHH1 post conjugation) VHH: DVQLVESGGGLVQPGGSLRLSCVASGRLSSSNSMAWYRQVPGKRRELVAGITGGGETNYADFVGGRFTISRDNAKNGLYLQLNGLKPEDTAAYYCNFWPPLINYWGQGTQVTVSS
0.0719

Could you now consider this next binder?
Data point: TCO-VHH9 (VHH, trans-cyclooctene (TCO) conjugated via TCO-NHS; site(s) and number not stated, also called TCO conjugated VHH9; VHH9 post conjugation) VHH: QVQLQESGGGLVQSGGSLRLSCVASGSISSINAMGWYRQAPGNKREWVAGITSGGSTNYADAVLGRFSIFRDNPKNTVYLQMNSLKPEDTAVYYCNTWPPSTFGSWGQGTQVTVSS ; Kd = 0.951
